# Test system: NCI-H1755
# protocolText: relative viability (nuclei count vs DMSO), 5 days (fraction); higher = more cells survive
# reportedConditions: first compound 1 µM
recordedEndpoint: relative viability

{"columns": ["compound", "studySystem", "relative viability"],
 "data": [
  ["O=c1cc(N2CCOCC2)oc2c(-c3cccc4c3sc3ccccc34)cccc12 + CCNC(=O)c1noc(-c2cc(C(C)C)c(O)cc2O)c1-c1ccc(CN2CCOCC2)cc1 [Luminespib] (partner 0.01 µM)", "NCI-H1755", 0.563],
  ["CCN(CC)CCCCNc1ncc2cc(-c3cc(OC)cc(OC)c3)c(NC(=O)NC(C)(C)C)nc2n1 + O=C(CCCCCCC(=O)Nc1ccccc1)NO [Vorinostat] (partner 1 µM)", "NCI-H1755", 0.746],
  ["O=c1cc(N2CCOCC2)oc2c(-c3cccc4c3sc3ccccc34)cccc12 + CC(=O)Nc1cccc(-n2c(=O)n(C3CC3)c(=O)c3c(Nc4ccc(I)cc4F)n(C)c(=O)c(C)c32)c1 [Trametinib] (partner 0.02 µM)", "NCI-H1755", 0.819],
  ["CCN(CC)CCCCNc1ncc2cc(-c3cc(OC)cc(OC)c3)c(NC(=O)NC(C)(C)C)nc2n1 + CS(=O)(=O)N1CCN(Cc2cc3nc(-c4cccc5[nH]ncc45)nc(N4CCOCC4)c3s2)CC1 [Pictilisib] (partner 1 µM)", "NCI-H1755", 0.258],
  ["O=c1cc(N2CCOCC2)oc2c(-c3cccc4c3sc3ccccc34)cccc12 + N=C(N)NC(=N)NCCc1ccccc1 [Phenformin] (partner 250 µM)", "NCI-H1755", 0.605]
]}

Next compound, relative viability to be filled in.
API: value(readout= relative viability, system= NCI-H1755, query= CCN(CC)CCCCNc1ncc2cc(-c3cc(OC)cc(OC)c3)c(NC(=O)NC(C)(C)C)nc2n1 + CC(=O)Nc1cccc(-n2c(=O)n(C3CC3)c(=O)c3c(Nc4ccc(I)cc4F)n(C)c(=O)c(C)c32)c1 [Trametinib] (partner 0.02 µM) )
0.55
